B1: SCARA5 (parent)
chain: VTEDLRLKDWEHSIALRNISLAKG

# Variants of: B1
# procedure.summary: protein stability index of a GFP-peptide fusion (GPS, HEK-293T) (PSI 1-6); higher = more stable;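 further: lentivirally expressed fusions sorted by FACS into six bins by GFP to DsRed ratio, PSI derived from sequencing read proportions per bin multiplied by bin number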
# particulars: c terminus: a fixed tail appended
observation.type: protein stability index

Reference set, count: 5
variant	protein stability index
E3R	2.96
N18I	2.47
L7F	3.75
R17D	3.94
S13Q	3.68

Specify reported protein stability index for the variant shown: H12N 3.7

Supply reported protein stability index belonging to this variant: R6E 3.58

Identify protein stability index associated with the variant I14A 4.04

State its protein stability index: A22R 3.33

// provenance: the supplement of paper PMC10567573
